Biological target: Thymidine kinase (Human alphaherpesvirus 1, UniProt Q9QNF7)
Sequence (Q9QNF7 whole entry): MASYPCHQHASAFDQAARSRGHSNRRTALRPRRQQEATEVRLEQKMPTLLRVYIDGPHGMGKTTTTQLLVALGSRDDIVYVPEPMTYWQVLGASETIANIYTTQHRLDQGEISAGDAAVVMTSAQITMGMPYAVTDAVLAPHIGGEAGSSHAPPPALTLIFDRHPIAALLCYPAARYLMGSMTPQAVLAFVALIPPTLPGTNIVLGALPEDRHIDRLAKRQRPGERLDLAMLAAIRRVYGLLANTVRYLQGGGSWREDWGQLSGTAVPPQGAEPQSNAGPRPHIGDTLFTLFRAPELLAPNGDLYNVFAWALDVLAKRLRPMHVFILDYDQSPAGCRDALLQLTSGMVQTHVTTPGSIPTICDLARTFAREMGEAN
pIC50: −log10 of the molar value.
// pIC50 lookup, one value per entry
READOUT LABEL: pIC50

• O=c1[nH]c(Nc2cccc(C(Cl)C(F)(F)Cl)c2)nc2nc[nH]c12 (centres undefined) = 6.19
• OCCn1cnc2c(O)nc(Nc3cccc(C(F)(F)F)c3)nc21 = 5.33
• O=c1[nH]c(Nc2ccccc2)nc2c1ncn2CC(O)CSCCO (centres undefined) = 5.80
• O=c1[nH]c(Nc2cccc(C(F)F)c2)nc2nc[nH]c12 = 5.55
